molecular target: Jak2 (human Jak2 kinase domain, amino acids 808-1132) (Homo sapiens (Human)); assay: Jak2 inhibition assay (Omnia kinase assay); type: biochemical; details: read-out: Jak2 Enzyme (% inhibition at 1000 nM), Table 1; 1000 nM test compound
Sequence (O60674 808-1132): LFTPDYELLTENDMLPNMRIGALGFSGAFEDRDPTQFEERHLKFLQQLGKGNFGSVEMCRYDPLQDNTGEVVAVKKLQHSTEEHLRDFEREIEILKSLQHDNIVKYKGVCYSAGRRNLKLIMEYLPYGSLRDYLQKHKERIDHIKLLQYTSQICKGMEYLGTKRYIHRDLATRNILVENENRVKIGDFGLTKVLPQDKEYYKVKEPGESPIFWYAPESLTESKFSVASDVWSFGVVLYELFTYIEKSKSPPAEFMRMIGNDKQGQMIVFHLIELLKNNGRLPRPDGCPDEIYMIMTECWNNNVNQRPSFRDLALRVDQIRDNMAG
Label scheme for inhibition at 1 µM: lower than 40% is Not satisfied, 40% and above is Satisfied.

Could you please find out whether NS(=O)(=O)N1CCC(NC(=O)c2cnn3ccc(N4CCC[C@@H]4c4cc(F)ccc4F)nc23)CC1 has inhibition at 1 µM that meets 40% or exceeds it?
Satisfied

Follow-up entry: CONC(=O)c1cnn2ccc(N3CCC[C@@H]3c3cccc(F)c3)nc12
Not satisfied

Subsequent entry: Cn1cc(F)cc([C@H]2CCCN2c2ccn3ncc(C(=O)NC4(C)CC4)c3n2)c1=O
Satisfied

Okay, and C[C@@H](NC(=O)c1cnn2ccc(N3CCC[C@@H]3c3cc(F)cn(C)c3=O)nc12)C1CC1 ?
Satisfied

Again, but for O=C(N[C@H]1CC[C@H](O)CC1)c1cnn2ccc(N3CCC[C@@H]3c3cccc(F)c3)nc12
Satisfied

Also CCc1ncc(F)cc1[C@H]1CCCN1c1ccn2ncc(C(=O)N[C@H]3CC[C@H](O)CC3)c2n1 ?
Not satisfied

Try this compound too: C[C@@H](O)CNC(=O)c1cnn2ccc(N3CCCC3c3cc(F)ccc3F)nc12 (stereo in doubt)
Not satisfied

Query O=C(N[C@H]1CC[C@H](O)C1)c1cnn2ccc(N3CCC[C@@H]3c3cc(F)ccc3F)nc12 next
Satisfied
